- SYSTEM UNDER TEST: protein kinase
- PROTOCOL NOTES: HTS ATP-utilizing enzyme assay, off-chip mobility-shift format (Caliper HTS 250)
- Type: biochemical, human
- CONDITION: kinase(s) for which the compound exhibits protein kinase inhibitory activity; test compound 10 μM; active = greater than three-sigma from the mean activity of inactive compounds
ASSAY METRIC: Kinase

Previously resolved entries follow.
>>> recorded_measurement("CCOC(=O)c1ccc(NC(=O)CSc2nnc(CNc3ccc(C)cc3)n2CC)cc1")
"CHEK2"
>>> recorded_measurement("O=C(CSc1nnc(-c2ccncc2)n1-c1ccc(F)cc1)Nc1cccc(O)c1")
"AURORA-A"
>>> recorded_measurement("CCn1c(SCC(=O)N(c2ccccc2)c2ccccc2)nnc1-c1ccc(O)cc1")
"SRC"
>>> recorded_measurement("Cn1c(SCC(N)=O)nnc1-c1ccncc1")
"AKT1"
>>> recorded_measurement("COc1ccccc1-n1c(SCC(N)=O)nnc1-c1ccccc1O")
"AURORA-A"
>>> recorded_measurement("O=C(O)CSc1nnc(CNc2ccc(F)cc2)n1Cc1ccccc1")
"DAPK1"
>>> recorded_measurement("O=C(O)c1ccc(-n2c(S)nnc2-c2cc(C3CC3)n[nH]2)cc1")
"GSK3-α"
>>> recorded_measurement("CCC(=O)Nc1ccc(NC(=O)CSc2nnc(-c3ccc(O)cc3)n2CC)cc1C")
"GSK3-α"
>>> recorded_measurement("CCOC(=O)c1ccc(NC(=O)CSc2nnc(C)n2CCOC)cc1")
"AKT1"

// fetch protein kinase Kinase for `COc1ccccc1-n1c(SCC(=O)Nc2cccc(C(=O)O)c2)nnc1-c1ccccc1O`
AURORA-A

====

- SYSTEM UNDER TEST: protein kinase
- PROTOCOL NOTES: HTS ATP-utilizing enzyme assay, off-chip mobility-shift format (Caliper HTS 250)
- Format: biochemical, human
- CONDITION: kinase(s) for which the compound exhibits protein kinase inhibitory activity; test compound 10 μM; active = greater than three-sigma from the mean activity of inactive compounds
ASSAY METRIC: Kinase

>>> recorded_measurement("COC(=O)CSc1nnc(CNc2ccc(OC)cc2)n1-c1ccccc1")
"PDGFRR-α"
>>> recorded_measurement("Cc1ccc(NCc2nnc(SCC(N)=O)n2CC2CCCO2)cc1Cl (centres unmarked)")
"AURORA-A"
>>> recorded_measurement("Cc1ccc(-n2c(C)nnc2SCc2nnc(S)n2-c2ccccc2)cc1")
"PDGFRR-α"
>>> recorded_measurement("Cn1c(CNc2cccc(Cl)c2)nnc1SCC#N")
"AURORA-A"
>>> recorded_measurement("Cc1ccc(NCc2nnc(SCC#N)n2-c2ccccc2)c(C)c1")
"AKT1"
>>> recorded_measurement("COc1ccc(-n2c(CNc3ccccc3Cl)nnc2SCC(=O)Nc2ccc([N+](=O)[O-])cc2)cc1")
"CHEK2"
>>> recorded_measurement("Cc1ccc(-n2c(CNc3ccc(F)cc3)nnc2SCC(=O)Nc2ccccc2C(F)(F)F)cc1")
"AKT1"
>>> recorded_measurement("Cc1nnc(SCC(=O)Nc2cccc(N)c2)n1-c1ccccc1")
"FYN"

I would be grateful if you could share the reported Kinase for `O=C(CSc1nnc(CSc2nc3ccccc3s2)n1-c1ccccc1)NCCO` .
FYN

====

- Test system: protein kinase
- PROTOCOL NOTES: HTS ATP-utilizing enzyme assay, off-chip mobility-shift format (Caliper HTS 250)
- Format: biochemical, human
- CONDITION: test compound 10 μM; active = activity greater than three-sigma from the mean of the predominately inactive population for that enzyme
ASSAY METRIC: protein kinase against which the compound exhibits inhibitory activity (Table 3)

Previously resolved entries follow.
>>> recorded_measurement("CCOC(=O)CCCSc1nnc(-c2ccc3[nH]c(C)c(C)c3c2)n1CC")
"FLT-3"
>>> recorded_measurement("Cc1ccc(NCc2nnc(SCc3ccccc3)n2C)cc1")
"AURORA-A"
>>> recorded_measurement("COc1ccccc1-n1c(SCC(=O)Nc2cc(NC(=O)c3ccco3)ccc2C)nnc1-c1ccccc1O")
"AURORA-A"
>>> recorded_measurement("CCOc1ccc(NCc2nnc(SCCN3CCOCC3)n2-c2ccccc2)cc1")
"FYN"

Turning to the following compound.
I would be grateful if you could share the reported protein kinase against which the compound exhibits inhibitory activity (Table 3) for `CCn1c(COc2cccc3ccccc23)nnc1SCCC(=O)O` .
AURORA-A

====

- SYSTEM UNDER TEST: protein kinase
- PROTOCOL NOTES: HTS ATP-utilizing enzyme assay, off-chip mobility-shift format (Caliper HTS 250)
- Type: biochemical, human
- CONDITION: kinase(s) for which the compound exhibits protein kinase inhibitory activity; test compound 10 μM; active = greater than three-sigma from the mean activity of inactive compounds
- From the text: The following procedures describe the reagent and plate preparation for a HTS of an ATP-utilizing enzyme, such as a protein kinase, run in an off-chip mobility-shift assay format. The following provides an HTS protocol for running a protein kinase HTS screen on a Caliper HTS 250 microfluidics system. The following parameters are dependent on the protein kinase used and can be determined by one skilled in the art as part of a typical assay development process. […]
ASSAY METRIC: Kinase

>>> recorded_measurement("COc1ccc(-c2nnc(SCC(=O)OC3CCCCCC3)n2-c2cccc(C(F)(F)F)c2)cc1")
"FLT-3"
>>> recorded_measurement("COc1ccc(-n2c(C)nnc2S)cc1")
"AURORA-A"
>>> recorded_measurement("Cn1c(COc2ccc3ccccc3c2)nnc1SCC(N)=O")
"FYN"
>>> recorded_measurement("Cc1nnc(S)n1CC1CCCO1 (stereo not shown)")
"MAPKAPK-2"
>>> recorded_measurement("COCCCn1c(SCC(=O)Nc2c(C)cccc2C)nnc1-c1ccncc1")
"FYN"
>>> recorded_measurement("N#CCSc1nnc(-c2cccnc2)n1-c1ccccc1")
"AURORA-A"
>>> recorded_measurement("COc1ccccc1-c1nnc(SCC(=O)Nc2ccccc2)n1C")
"AURORA-A"
>>> recorded_measurement("O=C(O)CSc1nnc(-c2cccnc2)n1-c1ccc(F)cc1")
"AURORA-A"
>>> recorded_measurement("COc1ccccc1OCc1nnc(S)n1Cc1ccccc1")
"AURORA-A"
>>> recorded_measurement("CCOC(=O)CSc1nnc(COc2ccc3ccccc3c2)n1C")
"MAPKAPK-2"

# return Kinase for each item in the list
1. COC(=O)c1ccccc1NC(=O)CSc1nnc(CNc2cccc(Cl)c2)n1C
2. O=C(CSc1nncn1-c1ccccn1)Nc1nccs1
3. CC1CCCCC1NC(=O)CSc1nnc(-c2ccccc2)n1Cc1ccccc1 (stereo not shown)

["AURORA-A", "GSK3-α", "AKT1"]

====

- Test system: protein kinase
- PROTOCOL NOTES: HTS ATP-utilizing enzyme assay, off-chip mobility-shift format (Caliper HTS 250)
- Type: biochemical, human
- CONDITION: test compound 10 μM; active = activity greater than three-sigma from the mean of the predominately inactive population for that enzyme
- Description: The following procedures describe the reagent and plate preparation for a HTS of an ATP-utilizing enzyme, such as a protein kinase, run in an off-chip mobility-shift assay format. The following provides an HTS protocol for running a protein kinase HTS screen on a Caliper HTS 250 microfluidics system. The following parameters are dependent on the protein kinase used and can be determined by one skilled in the art as part of a typical assay development process. […]
ASSAY METRIC: protein kinase against which the compound exhibits inhibitory activity (Table 3)

Previously resolved entries follow.
>>> recorded_measurement("CCOc1ccc(NCc2nnc(SCCN3CCOCC3)n2-c2ccc(C)cc2)cc1")
"FYN"
>>> recorded_measurement("Cn1c(SCc2ccc(Cl)cc2)nnc1-c1cccnc1")
"CHEK2"
>>> recorded_measurement("OC(CSc1nnc(-c2cccnc2)[nH]1)C(F)(F)F (stereo not drawn)")
"AURORA-A"
>>> recorded_measurement("Cn1c(COc2ccccc2)nnc1SCc1cc(=O)[nH]c2ccccc12")
"GSK3a"
>>> recorded_measurement("COc1ccc(-n2c(CNc3ccc(F)cc3)nnc2SC)cc1")
"AKT1"
>>> recorded_measurement("O=C(CSc1nnc(-c2ccncc2)n1-c1ccc(F)cc1)NN(O)C(=O)c1ccccc1")
"FYN"
>>> recorded_measurement("COc1ccc(-n2c(SCC(=O)NNC(C)=O)nnc2-c2ccncc2)cc1")
"FYN"
>>> recorded_measurement("COc1ccccc1-n1c(SCC(=O)c2ccc(Cl)s2)nnc1-c1cccc(Cl)c1")
"ROCK2"
>>> recorded_measurement("CCn1c(SCc2ccccc2Cl)nnc1-c1cc(-c2ccccc2)nc2ccccc12")
"CHEK2"
>>> recorded_measurement("C=CCSc1nnc(Cn2cnc3ccccc32)n1C")
"HCK"

# return protein kinase against which the compound exhibits inhibitory activity (Table 3) for each item in the list
1. c1ccc(CCn2c(Cc3ccccc3)nnc2SCc2ccccc2)cc1
2. COc1ccc(-c2nnc(SCc3ccc(S(C)(=O)=O)cc3)[nH]2)cc1
3. COc1ccc(NCc2nnc(SCc3ccc([N+](=O)[O-])cc3)n2C)cc1
4. COc1ccccc1-n1c(SCC(=O)N2CCCC2)nnc1-c1ccccc1O
5. C=CCn1c(CCC2CCCC2)nnc1SCC=C(C)C
6. CCn1c(SCCSc2nnc(C3CCCCC3)n2CC)nnc1C1CCCCC1

["AURORA-A", "FLT-3", "FYN", "PRAK", "DYRK2", "CHEK2"]

# return protein kinase against which the compound exhibits inhibitory activity (Table 3) for each item in the list
1. CC(C)(C)c1nnc(SCc2ccncc2)[nH]1
2. Cc1cc(C)nc(SCc2nnc(SCc3ccccc3)n2Cc2ccco2)n1

GSK3-α
CDK1

# return protein kinase against which the compound exhibits inhibitory activity (Table 3) for each item in the list
1. CCN(CC)S(=O)(=O)c1ccc(-c2nnc(SCc3nnc(-c4ccccc4)o3)n2CC)cc1
2. Cc1cccc(-c2nnc(SCc3cccc4ccccc34)[nH]2)c1

1. GSK3-α
2. AURORA-A

# return protein kinase against which the compound exhibits inhibitory activity (Table 3) for each item in the list
1. CCCCSc1nnc(COc2ccc(Cl)cc2)[nH]1
2. COCCCn1c(SCc2ccc(Cl)cc2)nnc1-c1ccc(C(C)(C)C)cc1

1: FLT-3; 2: DAPK1

The measurements presented in this section are drawn from patent US20050288347A1.
